conditions: in DMF, 313.3 K
Measurement name: solubility (mole fraction)
A bare number is all that is needed in reply.

Prompt: Item under review: CN(C)CCC=C1c2ccccc2CCc2ccccc21.Cl . Reported solubility (mole fraction)?
Completion: 0.0519

* * *

conditions: in 2-butanone, 313.15 K
Measurement name: solubility (mole fraction)

Prompt: Item under review: CN(C)CCC=C1c2ccccc2CCc2ccccc21.Cl . Reported solubility (mole fraction)?
Completion: 0.00462

* * *

details: in sec-butanol, 298.1 K
Measurement name: solubility (mole fraction)
A bare number is all that is needed in reply.

Prompt: Item under review: CN(C)CCC=C1c2ccccc2CCc2ccccc21.Cl . Reported solubility (mole fraction)?
Completion: 0.0156

* * *

settings: in sec-butanol, 293.21 K
Measurement name: solubility (mole fraction)
A bare number is all that is needed in reply.

Prompt: Item under review: CN(C)CCC=C1c2ccccc2CCc2ccccc21.Cl . Reported solubility (mole fraction)?
Completion: 0.0121

* * *

details: in n-butanol, 323.23 K
Measurement name: solubility (mole fraction)
A bare number is all that is needed in reply.

Prompt: Item under review: CN(C)CCC=C1c2ccccc2CCc2ccccc21.Cl . Reported solubility (mole fraction)?
Completion: 0.112

* * *

conditions: in acetone, 283.17 K
Measurement name: solubility (mole fraction)
A bare number is all that is needed in reply.

Prompt: Item under review: CN(C)CCC=C1c2ccccc2CCc2ccccc21.Cl . Reported solubility (mole fraction)?
Completion: 0.00226

* * *

conditions: in n-pentanol, 318.07 K
Measurement name: solubility (mole fraction)
A bare number is all that is needed in reply.

Prompt: Item under review: CN(C)CCC=C1c2ccccc2CCc2ccccc21.Cl . Reported solubility (mole fraction)?
Completion: 0.117

* * *

details: in THF, 313.13 K
Measurement name: solubility (mole fraction)
A bare number is all that is needed in reply.

Prompt: Item under review: CN(C)CCC=C1c2ccccc2CCc2ccccc21.Cl . Reported solubility (mole fraction)?
Completion: 0.00152

* * *

settings: in n-pentanol, 303.07 K
Measurement name: solubility (mole fraction)
A bare number is all that is needed in reply.

Prompt: Item under review: CN(C)CCC=C1c2ccccc2CCc2ccccc21.Cl . Reported solubility (mole fraction)?
Completion: 0.0701

* * *

settings: in isobutanol, 283.25 K
Measurement name: solubility (mole fraction)
A bare number is all that is needed in reply.

Prompt: Item under review: CN(C)CCC=C1c2ccccc2CCc2ccccc21.Cl . Reported solubility (mole fraction)?
Completion: 0.0281

* * *

conditions: in n-pentanol, 288.23 K
Measurement name: solubility (mole fraction)
A bare number is all that is needed in reply.

Prompt: Item under review: CN(C)CCC=C1c2ccccc2CCc2ccccc21.Cl . Reported solubility (mole fraction)?
Completion: 0.0366

* * *

details: in acetonitrile, 288.13 K
Measurement name: solubility (mole fraction)
A bare number is all that is needed in reply.

Prompt: Item under review: CN(C)CCC=C1c2ccccc2CCc2ccccc21.Cl . Reported solubility (mole fraction)?
Completion: 0.0089

* * *

details: in isopropanol, 293.16 K
Measurement name: solubility (mole fraction)
A bare number is all that is needed in reply.

Prompt: Item under review: CN(C)CCC=C1c2ccccc2CCc2ccccc21.Cl . Reported solubility (mole fraction)?
Completion: 0.0102

* * *

conditions: in cyclohexanone, 303.09 K
Measurement name: solubility (mole fraction)
A bare number is all that is needed in reply.

Prompt: Item under review: CN(C)CCC=C1c2ccccc2CCc2ccccc21.Cl . Reported solubility (mole fraction)?
Completion: 0.00829

Where these numbers come from: BigSolDB 2.1
